The reported numbers originate from the supplement of paper PMC12582362.

System: optoTopBP1 Flp-In 293 T-REx (HEK293) cells
Assay: light-induced TopBP1 condensate (nuclear foci) count, plate-normalised robust z-score vs non-control wells; higher = more TopBP1 condensates (negative = condensation inhibitor), active = hit call of the paper
Conditions: 10 µM; incubation time 2 h
Structures can show the parent of a compound that is named as a salt. Hit rate of the full screen: of about 1,500 compounds, about 30 (2%) showed activity. Many of the other results were omitted from the sample, so actives are more common in it than they were.
Label rule, in plain words: light-induced TopBP1 condensate (z-score) of -0.9 and up is Condition met, under -0.9 is Condition not met.

Check out these entries, answers already filled in.
| molecule | class name |
| --- | --- |
| CC(=O)[C@@]12O[C@](C)(c3ccccc3)O[C@@H]1C[C@H]1[C@@H]3CCC4=CC(=O)CC[C@]4(C)[C@H]3CC[C@@]12C [Algestone acetophenide] | Condition not met |
| N[C@H](Cc1ccccc1)C(=O)O | Condition not met |
| CC(C)=CCOc1ccc(/C=C/C(=O)c2ccc(OCC=C(C)C)cc2OCC(=O)O)cc1 | Condition met |
| CC(NCCC(c1ccccc1)c1ccccc1)c1ccccc1 (stereo not drawn) [Fendiline hydrochloride] | Condition not met |
| CNCCC=C1c2ccccc2C=Cc2ccccc21 | Condition met |

Decide: light-induced TopBP1 condensate (z-score) of CC(C)(S)C(N)C(=O)O (racemic) >= -0.9?
Condition met
